Each entry below lists one item and its recorded IC50 value.
Target: recombinant human arginase 1 (Homo sapiens, UniProt P05089)
Sequence (P05089 1-322): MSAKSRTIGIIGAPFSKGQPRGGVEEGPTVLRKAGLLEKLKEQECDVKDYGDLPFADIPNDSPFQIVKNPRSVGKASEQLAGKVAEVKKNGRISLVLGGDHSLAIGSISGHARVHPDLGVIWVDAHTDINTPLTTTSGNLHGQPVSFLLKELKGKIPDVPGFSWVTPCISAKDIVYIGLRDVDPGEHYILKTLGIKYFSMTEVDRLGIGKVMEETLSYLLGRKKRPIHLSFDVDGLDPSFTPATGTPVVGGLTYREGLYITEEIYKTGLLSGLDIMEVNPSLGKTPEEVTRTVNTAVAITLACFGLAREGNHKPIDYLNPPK
Assay: Human arginase inhibition assay (colorimetric urea detection), arginase 1
Details: IC50 class, hydrochloride salts, 1 h at 37° C., pH 7.4, 10 mM L-arginine, 200 μM MnCl2, read-out: Activity Class (ARG I)
Where a name gives a salt, the structure may show the parent alone.
quantity: IC50

| compound | system name | observed measurement |
| --- | --- | --- |
| N[C@@H](CC(=O)O)C(=O)N1C[C@@H](CCB(O)O)C[C@](N)(C(=O)O)C1 [Example 14, dihydrochloride] | recombinant human arginase 1 (Homo sapiens, UniProt P05089) | 500 to 999 nM |
| N[C@@H](Cc1ccc(O)cc1)C(=O)N1C[C@@H](CCB(O)O)C[C@](N)(C(=O)O)C1 [Example 10, dihydrochloride] | recombinant human arginase 1 (Homo sapiens, UniProt P05089) | 250 to 499 nM |
| NC(=O)NCCC[C@H](N)C(=O)N1C[C@@H](CCB(O)O)C[C@](N)(C(=O)O)C1 [Example 21, dihydrochloride] | recombinant human arginase 1 (Homo sapiens, UniProt P05089) | 250 to 499 nM |
| N[C@@H](Cc1c[nH]c2ccccc12)C(=O)N1C[C@@H](CCB(O)O)C[C@](N)(C(=O)O)C1 [Example 18, dihydrochloride] | recombinant human arginase 1 (Homo sapiens, UniProt P05089) | 250 to 499 nM |
| C[C@H](N)C(=O)N1C[C@H](CCB(O)O)C[C@](N)(C(=O)O)C1 [Example 32, dihydrochloride] | recombinant human arginase 1 (Homo sapiens, UniProt P05089) | > 10000 nM |
| CNCC(=O)N1C[C@@H](CCB(O)O)C[C@](N)(C(=O)O)C1 [Example 27, dihydrochloride] | recombinant human arginase 1 (Homo sapiens, UniProt P05089) | 250 to 499 nM |
| NCCC[C@H](N)C(=O)N1C[C@@H](CCB(O)O)C[C@](N)(C(=O)O)C1 [Example 22, trihydrochloride] | recombinant human arginase 1 (Homo sapiens, UniProt P05089) | 250 to 499 nM |

====

Below is a list of entries, each paired with its recorded pIC50 value.
Target: recombinant human arginase 2 (Homo sapiens)
Sequence (P78540 23-354): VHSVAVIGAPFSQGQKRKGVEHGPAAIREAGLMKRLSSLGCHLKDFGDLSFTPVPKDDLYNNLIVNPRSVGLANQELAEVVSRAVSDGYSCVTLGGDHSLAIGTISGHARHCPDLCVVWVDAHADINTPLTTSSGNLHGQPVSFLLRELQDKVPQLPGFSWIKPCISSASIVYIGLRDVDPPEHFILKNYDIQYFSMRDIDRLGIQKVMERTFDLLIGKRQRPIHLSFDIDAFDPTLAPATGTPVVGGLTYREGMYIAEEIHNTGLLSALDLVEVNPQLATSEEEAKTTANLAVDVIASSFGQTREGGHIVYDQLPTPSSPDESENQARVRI
Assay: Human arginase inhibition assay (colorimetric urea detection), arginase 2
Conditions: IC50 class, hydrochloride salts, 1 h at 37° C., pH 7.4, 10 mM L-arginine, 200 μM MnCl2, read-out: Activity Class (ARG II)
Protocol: The inhibitory activities of the compounds of the invention were assessed using recombinant human arginase 1 and 2. […] The absorbance for each well was measured at 515 nm and the enzyme inhibition was calculated. […] The absorbance at the absence of arginase (background) was subtracted from all the values. Normalized values were analyzed using GraphPad Prism 7.0 software by plotting inhibition curves and determining the IC50 values. […]
pIC50: −log10 of the molar value. Where a name gives a salt, the structure may show the parent alone.

| compound | pIC50 |
| --- | --- |
| NCCCC[C@H](N)C(=O)N1C[C@@H](CCB(O)O)C[C@](N)(C(=O)O)C1 [Example 7, trihydrochloride] | 6.00 to 6.30 |
| C[C@H](N)C(=O)N1C[C@@H](CCB(O)O)C[C@](N)(C(=O)O)[C@@H]1C [Example 30, dihydrochloride] | 6.00 to 6.30 |
| N=C(N)NCCC[C@H](N)C(=O)N1C[C@@H](CCB(O)O)C[C@](N)(C(=O)O)C1 [Example 20, trihydrochloride] | 6.30 to 6.60 |
| N[C@@H](Cc1c[nH]cn1)C(=O)N1C[C@@H](CCB(O)O)C[C@](N)(C(=O)O)C1 [Example 13, trihydrochloride] | 6.00 to 6.30 |
| C[C@H](N)C(=O)N1C[C@@H](CCB(O)O)C[C@](N)(C(=O)O)C1 [Example 1, dihydrochloride] | 6.00 to 6.30 |
| NCC(=O)N1C[C@@H](CCB(O)O)C[C@](N)(C(=O)O)C1 [Example 3, dihydrochloride] | 6.00 to 6.30 |
| N[C@@H](Cc1ccccc1)C(=O)N1C[C@@H](CCB(O)O)C[C@](N)(C(=O)O)C1 [Example 11, dihydrochloride] | 5.00 to 6.00 |
| N[C@@H](CO)C(=O)N1C[C@@H](CCB(O)O)C[C@](N)(C(=O)O)C1 [Example 6, dihydrochloride] | 6.00 to 6.30 |

====

target: recombinant human arginase 1 (Homo sapiens); assay: Human arginase inhibition assay (colorimetric urea detection), arginase 1; settings: IC50 class, hydrochloride salts, 1 h at 37° C., pH 7.4, 10 mM L-arginine, 200 μM MnCl2, read-out: Activity Class (ARG I)
pIC50: −log10 of the molar value. Structures can show the parent of a compound that is named as a salt.
quantity: pIC50

| compound | system name | observed measurement |
| --- | --- | --- |
| N[C@@H](Cc1ccccc1)C(=O)N1C[C@@H](CCB(O)O)C[C@](N)(C(=O)O)C1 [Example 11, dihydrochloride] | recombinant human arginase 1 (Homo sapiens) | 6.60 to 9.00 |
| NCC(=O)N1C[C@@H](CCB(O)O)C[C@](N)(C(=O)O)C1 [Example 3, dihydrochloride] | recombinant human arginase 1 (Homo sapiens) | 6.60 to 9.00 |
| Cn1cc(C[C@@H](N)C(=O)N2C[C@@H](CCB(O)O)C[C@](N)(C(=O)O)C2)c2ccccc21 [Example 24, dihydrochloride] | recombinant human arginase 1 (Homo sapiens) | 6.00 to 6.30 |
| N[C@]1(C(=O)O)C[C@H](CCB(O)O)CN(C(=O)[C@@H]2CCCN2)C1 [Example 4, dihydrochloride] | recombinant human arginase 1 (Homo sapiens) | 6.30 to 6.60 |
| CC(C)[C@H](N)C(=O)N1C[C@@H](CCB(O)O)C[C@](N)(C(=O)O)C1 [Example 5, dihydrochloride] | recombinant human arginase 1 (Homo sapiens) | 6.30 to 6.60 |
| COC(=O)[C@@]1(N)C[C@H](CCB(O)O)CN(C(=O)[C@H](C)N)C1 [Example 28, dihydrochloride] | recombinant human arginase 1 (Homo sapiens) | < 5.00 |
| C[C@H](N)C(=O)N1C[C@@H](CCB(O)O)C[C@](N)(C(=O)O)[C@@H]1C [Example 30, dihydrochloride] | recombinant human arginase 1 (Homo sapiens) | 6.60 to 9.00 |

====

Molecular target: recombinant human arginase 1 (Homo sapiens)
Assay: Human arginase inhibition assay (colorimetric urea detection), arginase 1
Conditions: IC50 class, hydrochloride salts, 1 h at 37° C., pH 7.4, 10 mM L-arginine, 200 μM MnCl2, read-out: Activity Class (ARG I)
Description: The inhibitory activities of the compounds of the invention were assessed using recombinant human arginase 1 and 2. […] The absorbance for each well was measured at 515 nm and the enzyme inhibition was calculated. […] The absorbance at the absence of arginase (background) was subtracted from all the values. Normalized values were analyzed using GraphPad Prism 7.0 software by plotting inhibition curves and determining the IC50 values. […]
Counter-ions that a name gives are not always drawn.

| compound | IC50 |
| --- | --- |
| CSCC[C@H](N)C(=O)N1C[C@@H](CCB(O)O)C[C@](N)(C(=O)O)C1 [Example 17, dihydrochloride] | 250 to 499 nM |
| C[C@H](N)C(=O)N1C[C@@H](CCB(O)O)C[C@@](N)(C(=O)O)C1 [Example 33, dihydrochloride] | > 10000 nM |
| CC(C)C[C@H](N)C(=O)N1C[C@@H](CCB(O)O)C[C@](N)(C(=O)O)C1 [Example 8, dihydrochloride] | 500 to 999 nM |
| CC[C@H](C)[C@H](N)C(=O)N1C[C@@H](CCB(O)O)C[C@](N)(C(=O)O)C1 [Example 9, dihydrochloride] | 500 to 999 nM |
| N=C(N)NCCC[C@H](N)C(=O)N1C[C@@H](CCB(O)O)C[C@](N)(C(=O)O)C1 [Example 20, trihydrochloride] | 1 to 249 nM |
| C[C@@H](O)[C@H](N)C(=O)N1C[C@@H](CCB(O)O)C[C@](N)(C(=O)O)C1 [Example 12, dihydrochloride] | 250 to 499 nM |
| NC(=O)C[C@H](N)C(=O)N1C[C@@H](CCB(O)O)C[C@](N)(C(=O)O)C1 [Example 26, dihydrochloride] | 250 to 499 nM |
